tested on: SNB-75 CNS; assay: NCI tumour cell line growth inhibition, 48 h
compounds and their reported TGI

# compound, assayed.system, unit.tag, value.qualifier, TGI
measured = [
    ("O=C(CCc1cc(-c2ccccc2)nc(=S)[nH]1)Nc1ccccc1[N+](=O)[O-]", "SNB-75 CNS", "µM", ">", 100),
    ("CCOc1cc2c(cc1O)/C(=N/NS(=O)(=O)c1ccc(C)cc1)C[C@@H]1[C@@H]2CC[C@]2(C)[C@@H](O)CC[C@@H]12", "SNB-75 CNS", "µM", "=", 67.7),
    ("COc1ccc(/C=C2\\CCC(CN(C)C)C2=O)cc1OC (stereo not given)", "SNB-75 CNS", "µM", "=", 30.5),
    ("Nc1n[nH]c2cccc(C#Cc3cccc(C(=O)Nc4cc(CN5CCOCC5)cc(C(F)(F)F)c4)c3)c12", "SNB-75 CNS", "µM", "=", 19.3),
    ("O=c1[nH]c(-c2ccccc2)nc2c1sc1nc3ccccc3n12", "SNB-75 CNS", "µM", ">", 100),
]

----------
GI50 for assorted compounds
tested on: NCI-H226 lung; experiment: NCI tumour cell line growth inhibition, 48 h

# compound, assayed.system, GI50
data = [
    ("CCCc1cc(=O)n2c(C(=O)Nc3ccccc3OC)c(C(=O)Nc3ccc(F)cc3)sc2n1", "NCI-H226 lung", "0.802 µM"),
    ("CC1(C)CC[C@]2(C(=O)N3CCOCC3)CC[C@]3(C)C(=CC[C@@H]4[C@@]5(C)C/C(=C/c6ccncc6)C(=O)C(C)(C)[C@@H]5CC[C@]43C)[C@@H]2C1", "NCI-H226 lung", "2.09 µM"),
    ("CCCOC(=O)CCn1c(SC)nc2[nH]cc(-c3ccccc3)c2c1=O", "NCI-H226 lung", "18.9 µM"),
    ("COc1ccc2c(c1)C(C)Cc1c(Cl)nc(C)nc1N2C (stereo not given)", "NCI-H226 lung", "5.83 µM"),
    ("Nc1n[nH]c2ccc([C@@H]3Nc4ccc5[nH]ncc5c4[C@H]4C5C=CC(C5)[C@@H]34)cc12 (stereo not given in full)", "NCI-H226 lung", "0.636 µM"),
]

----------
test system: SF-268 CNS; assay: NCI tumour cell line growth inhibition, 48 h
// TGI lookup, one value per entry
endpoint.label: TGI

# molecule, endpoint.label, recorded.measurement
records = [
    ("C/C(=N\\NC(=S)NC(C)(C)C)c1ccccn1", "TGI", "> 87.8 µM"),
    ("O=C(/C=C/c1ccccc1)CSc1nc2ccc(I)cc2c(=O)n1Cc1ccccc1", "TGI", "51.9 µM"),
    ("COc1ccc(-c2cc(=O)c3cc4c(cc3[nH]2)OCO4)cc1", "TGI", "> 100 µM"),
    ("O=C(Nc1nc(=S)c2c(ncn2CCO)[nH]1)c1ccccc1", "TGI", "> 100 µM"),
    ("CC(C)(C)OC(=O)N/N=C(/N)Cc1ccccc1", "TGI", "> 100 µM"),
    ("COC(=O)C1=C(C)NC(C)=C(C(=O)OC)C1c1cccc(NO)c1", "TGI", "30.6 µM"),
    ("CCOC(=O)C1(C/C=C\\CBr)CCCCCCCCCCC1=O (stereo unspecified)", "TGI", "27.6 µM"),
    ("C/C(CC1SCCCS1)=C(/C)CC1SCCCS1", "TGI", "> 100 µM"),
    ("C[C@]12CCc3sc(Nc4ccc(O)cc4)nc3C1=CC[C@@H]1[C@@H]2CC[C@]2(C)C(=O)CC[C@@H]12", "TGI", "> 100 µM"),
    ("O=C(N/N=C/c1cc([N+](=O)[O-])ccc1O)c1cccc2ccccc12", "TGI", "> 100 µM"),
    ("CC(C)C1COC(c2cccc(C3=N[C@@H](C(C)C)CO3)n2)=N1 (stereo partly specified)", "TGI", "> 100 µM"),
]

----------
test system: SK-OV-3 ovarian; assay: NCI tumour cell line growth inhibition, 48 h

# molecule, assayed.system, TGI
measured = [
    ("O=C(Cc1ccccc1)NNc1nc(NNC(=O)c2ccncc2)nc(Nc2cccc(Cl)c2)n1", "SK-OV-3 ovarian", "> 10 µM"),
    ("Clc1nc(Cl)c(-c2ccccc2)c(Cl)n1", "SK-OV-3 ovarian", "23.3 µM"),
    ("CCOC(=O)c1nc(-c2ccccc2)oc1OCC", "SK-OV-3 ovarian", "> 100 µM"),
    ("Cc1ccc(Nc2nc(NS(=O)(=O)c3cc(C(=O)Nc4ccc(Cl)cc4)c(Cl)cc3S)n[nH]2)cc1", "SK-OV-3 ovarian", "> 100 µM"),
    ("CCC(=O)N(O)C(C)(C)C", "SK-OV-3 ovarian", "> 100 µM"),
    ("CCCCNC(=O)NS(=O)(=O)c1ccc(N2N=C(c3cc(C)ccc3C)CC2c2cc(OC)c(OC)c(OC)c2)cc1 (configuration not stated)", "SK-OV-3 ovarian", "10.1 µM"),
    ("c1ccc2cc(CNCCOCCOCCNCc3ccc4ccccc4c3)ccc2c1", "SK-OV-3 ovarian", "8.62 µM"),
    ("CN(C)CCn1c(=O)c2ccc3c4c(nn3CCN(C)C)c3cc(O)ccc3n(c1=O)c24", "SK-OV-3 ovarian", "0.74 µM"),
    ("O=C1[C@@H]2C[C@@H](O)CN2C(=O)c2ccccc2N1CCCO", "SK-OV-3 ovarian", "> 100 µM"),
    ("C=C1CCC2[C@@H](CCC3[C@]2(C)CCC[C@]3(C)C(=O)OC)C1CCO (some centres not stated)", "SK-OV-3 ovarian", "45.3 µM"),
    ("CCOc1ncn(-c2ccc(NC(=S)NC34CC5CC(CC(C5)C3)C4)cc2)n1", "SK-OV-3 ovarian", "> 100 µM"),
    ("c1ccc(P(CCP(CCP(c2ccccc2)c2ccccc2)c2ccccc2)CCP(c2ccccc2)c2ccccc2)cc1 (configuration not stated)", "SK-OV-3 ovarian", "> 10 µM"),
    ("CC12c3c4cc(Br)cc3Oc3cc(Br)cc(c31)Oc1cc(Br)cc(c12)O4", "SK-OV-3 ovarian", "> 100 µM"),
    ("O=C(OCCBr)c1ccc(Cl)c([N+](=O)[O-])c1", "SK-OV-3 ovarian", "31 µM"),
    ("CC(C)(C)[Si](C)(C)OCCOCn1cc(F)c(=O)[nH]c1=O", "SK-OV-3 ovarian", "> 100 µM"),
    ("COc1ccc(C(=O)/C=C/c2cccnc2)cc1OC", "SK-OV-3 ovarian", "28.6 µM"),
    ("O=C1/C(=C/c2ccccc2)CCC/C1=C\\c1ccc(O)c(CN2CCCCC2)c1", "SK-OV-3 ovarian", "22.2 µM"),
    ("Cc1n[nH]c(=O)n1/N=C\\CC/C=N\\n1c(C)n[nH]c1=O", "SK-OV-3 ovarian", "> 100 µM"),
    ("FC(F)(F)c1ccc(-c2cnc(Cl)nc2NCc2cc(C(F)(F)F)cc(C(F)(F)F)c2)cc1", "SK-OV-3 ovarian", "> 100 µM"),
    ("O=C(NN1C(=O)CSC1c1ccc(C(F)(F)F)cc1)c1ccncc1 (configuration not stated)", "SK-OV-3 ovarian", "> 100 µM"),
    ("O=c1oc(-c2ccccc2)c(-c2ccccc2)n1-c1ccc(Br)cc1", "SK-OV-3 ovarian", "> 100 µM"),
    ("c1ccc(C2OCCO2)c(OCCOc2cc(OCCOc3ccccc3C3OCCO3)c(OCCOc3ccccc3C3OCCO3)cc2OCCOc2ccccc2C2OCCO2)c1", "SK-OV-3 ovarian", "13.7 µM"),
    ("CC(C)c1ccc(Nc2nccc(-c3cnn4ncccc34)n2)cc1", "SK-OV-3 ovarian", "2.89 µM"),
    ("NC(=O)NC(=O)c1cccc(NC(=O)CF)c1", "SK-OV-3 ovarian", "> 100 µM"),
    ("CCCOC(=O)CCn1c(SC)nc2[nH]cc(-c3ccccc3)c2c1=O", "SK-OV-3 ovarian", "> 100 µM"),
    ("C=CCNC(=O)NCCCC(NC(C)=O)C(=O)NCc1ccccc1 (configuration not stated)", "SK-OV-3 ovarian", "> 100 µM"),
    ("CC(C)C[C@H](NC(=O)[C@@H](O)[C@H](N)Cc1ccc([N+](=O)[O-])cc1)C(=O)O", "SK-OV-3 ovarian", "> 25 µM"),
    ("COC(=O)C1=C(O)c2cc3c(cc2[C@H](c2cc(OC)c(OC)c(OC)c2)C1C(=O)OC)OCO3 (some centres not stated)", "SK-OV-3 ovarian", "> 100 µM"),
    ("Cn1cc(-c2ccc(-c3cn(C)c4ccc(Cl)cc34)s2)c2cc(Cl)ccc21", "SK-OV-3 ovarian", "> 100 µM"),
    ("CS(=O)(=O)Nc1ccc(N=Cc2c(O)[nH]c3ccccc23)cc1", "SK-OV-3 ovarian", "> 25 µM"),
    ("COc1cc(/C=C/C(=O)c2sc(NNC(C)=O)nc2C)ccc1O", "SK-OV-3 ovarian", "> 100 µM"),
    ("CCCC(Sc1ccccc1)P(=O)(c1ccccc1)c1ccccc1 (configuration not stated)", "SK-OV-3 ovarian", "50.7 µM"),
    ("C=C=C(Sc1ccccc1)C(C)(C)OC(C)=O", "SK-OV-3 ovarian", "51.9 µM"),
    ("N#Cc1[nH]c(=O)n(-c2cccc3ccccc23)c1N", "SK-OV-3 ovarian", "> 10 µM"),
    ("O=C(N/N=C/c1cc([N+](=O)[O-])ccc1O)c1cccc2ccccc12", "SK-OV-3 ovarian", "33.3 µM"),
    ("CC1(C)OC(=O)C2(O1)C(=O)C1CCCCC12 (configuration not stated)", "SK-OV-3 ovarian", "> 100 µM"),
    ("O=c1cc(N=Nc2ccc(O)cc2)[nH]c(=O)[nH]1", "SK-OV-3 ovarian", "> 100 µM"),
    ("CC(C)(CO)NC(=O)Nc1c(C(F)(F)F)cc(-c2ccccc2)[nH]c1=O", "SK-OV-3 ovarian", "> 100 µM"),
    ("Cc1ccc(S(=O)(=O)n2c3c(c4ccccc42)CCN2CCC(Br)C[C@@H]32)cc1 (some centres not stated)", "SK-OV-3 ovarian", "31.9 µM"),
    ("O=c1[nH]c(-c2ccccc2)nc2c1sc1nc3ccccc3n12", "SK-OV-3 ovarian", "> 100 µM"),
    ("O=c1[nH]c(-c2ccc(-c3nc4cc([N+](=O)[O-])ccc4c(=O)[nH]3)cc2)nc2cc([N+](=O)[O-])ccc12", "SK-OV-3 ovarian", "> 100 µM"),
    ("O=C1CC(C(=O)N2CCCCC2)n2c(=O)n(-c3ccccc3)c(=O)n2C1 (configuration not stated)", "SK-OV-3 ovarian", "> 100 µM"),
]
